- assay-system: Torpedo californica AChE (TcAChE) (Tetronarce californica)
- Sequence (P04058 22-586): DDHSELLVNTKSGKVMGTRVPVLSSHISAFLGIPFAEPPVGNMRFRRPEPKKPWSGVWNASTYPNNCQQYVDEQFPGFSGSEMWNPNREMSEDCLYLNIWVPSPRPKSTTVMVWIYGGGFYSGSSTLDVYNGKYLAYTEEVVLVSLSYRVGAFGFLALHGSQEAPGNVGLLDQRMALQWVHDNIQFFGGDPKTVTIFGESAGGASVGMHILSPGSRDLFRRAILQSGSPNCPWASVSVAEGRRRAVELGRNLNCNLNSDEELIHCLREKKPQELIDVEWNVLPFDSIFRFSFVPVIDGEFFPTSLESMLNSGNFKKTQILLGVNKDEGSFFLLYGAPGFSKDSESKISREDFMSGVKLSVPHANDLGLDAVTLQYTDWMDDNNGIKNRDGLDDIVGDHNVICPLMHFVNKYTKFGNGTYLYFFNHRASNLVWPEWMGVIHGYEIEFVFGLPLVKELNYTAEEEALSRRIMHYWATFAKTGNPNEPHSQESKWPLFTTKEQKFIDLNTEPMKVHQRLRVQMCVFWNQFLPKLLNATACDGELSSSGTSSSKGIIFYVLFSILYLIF
- experiment-summary: biochemical
- Type: biochemical
- condition-context: acetylthiocholine 10–200 µM, inhibitor 5, 10, 20 nM, K-phosphate buffer pH 7.0, room temperature; read-out: Ki (dissociation constant for free enzyme)
- Experimental: The enzymatic activity of TcAChE was evaluated spectrophotometrically at room temperature by Ellman’s method[42] using a GE Ultrospec 7000 double beam spectrophotometer. […] The reaction was initiated by addition to the reaction mixture of the substrate acetylthiocoline (Sigma-Aldrich, Milan, Italy). […] The plots were assessed by a weighted least-squares analysis that assumed the variance of the velocity (v) to be a constant percentage of v for the entire data set. […]
outcome-measure: Ki
Returns: string containing the number followed by the unit.

Reported Ki ( `COc1ccc2c(c1)C/C(=C\C1CCN(Cc3ccccc3)CC1)C2=O` ) = 0.0299 µM
